Target: T1, PH domain of fission yeast (Schizosaccharomyces pombe) Tfb1, residues 1-108 (Schizosaccharomyces pombe, UniProt O13745 1-108)
T1 construct: General transcription and DNA repair factor IIH subunit tfb1 (spTfb1), Schizosaccharomyces pombe, UniProt name TFB1_SCHPO, N-terminal PH domain, residues 1-108; 15N-labelled in the NMR titration; Residues of the vector may be left at the N-terminus after thrombin cleavage (surmised); also called spPH; spPH domain; source: E. coli BL21-Gold (DE3), pET15b, purified (His-tag resin, thrombin …)
T1 sequence (looked up): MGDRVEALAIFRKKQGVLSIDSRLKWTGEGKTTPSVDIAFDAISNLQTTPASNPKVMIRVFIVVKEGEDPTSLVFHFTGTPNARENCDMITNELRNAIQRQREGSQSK
Test: ITC; VP-ITC; syringe 300 uM peptide, cell 2 ml of 30 uM spPH domain; 25 x 20 ul injections; 20 mM potassium phosphate pH 6.8, 20°C
Settings: both partners purified
Reported Kd values follow for various binders
Please give a number only; it is taken to be in nM.

Recorded results for 2 binders are shown here.
Binder	Kd (nM)
DEDNTYSDDEEWLDLDLGL (peptide, UniProt Q10445 4-22, looked up, Rhp41 (homologue of human XPC and S. cerevisiae Rad4), Schizosaccharomyces pombe, residues 4-22 (holds Trp15, Leu16, Leu18, Leu20, Leu22); source: synthetic peptide, bought: GenScript) [spRhp41(4-22) peptide, N-terminal acidic string of fission yeast Rhp41]	52.1
DSENVDDEEDDDFLDVTTA (peptide, UniProt Q9P3W1 332-350, looked up, source: synthetic peptide, bought: GenScript) [spTfa1(332-350) peptide, acidic segment of fission yeast Tfa1]	148

Now let's try a different one.
Looking up NGFNEDDEDDEDEADFEDV (peptide, UniProt Q9P3W1 416-434, looked up, Tfa1 (homologue of human TFIIEalpha), Schizosaccharomyces pombe, residues 416-434; source: synthetic peptide, bought: GenScript) [spTfa1(416-434) peptide, C-terminal acidic segment of fission yeast Tfa1] , I found its Kd recorded as 12.4
